Where do the numbers come from? From the supplement of paper PMC5908809.

For each entry below, report its drug sensitivity score value.
system: normal primary NK cells, pool 2 (3 donors) (IL-2 2.5 ng/mL); experiment: drug sensitivity score (DSS) (DSS units); higher = more sensitive; extreme values may be limits of the assay; conditions: 72 h
The answer should be a number; do not append a unit.

Noted for N[C@@H]1CCCN(c2c(/C=C3\SC(=O)NC3=O)cccc2-c2ccccc2)C1 [AZD1208] (max concentration tested 10000 nM) : its drug sensitivity score reads 1.86

Noted for CN(C)C[C@@H]1CCn2cc(c3ccccc32)C2=C(C(=O)NC2=O)c2cn(c3ccccc23)CCO1 [Ruboxistaurin] (max concentration tested 10000 nM) : its drug sensitivity score reads 7.72

Noted for CCN(CC)CCCC(C)Nc1ccnc2cc(Cl)ccc12 (stereo not drawn) [Chloroquine] (max concentration tested 100000 nM) : its drug sensitivity score reads 9.79

* * *

For each entry below, report its percent inhibition of viability value.
system: normal primary NK cells, pool 1 (3 donors) (IL-2 2.5 ng/mL); assay: percent inhibition of viability; higher = more inhibition; conditions: 72 h; 100 nM;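 note: normalised to DMSO-only wells as negative and benzethonium chloride as positive control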
Quick reminder: number only, in %, skip the unit.

Noted for Cc1cc(Nc2cc(N3CCN(C)CC3)nc(/C=C/c3ccccc3)n2)n[nH]1 [ENMD-2076] (max concentration tested 10000 nM) : its percent inhibition of viability reads -1.53

Noted for CC(=O)[C@]1(O)Cc2c(O)c3c(c(O)c2[C@@H](O[C@H]2C[C@H](N)[C@H](O)[C@H](C)O2)C1)C(=O)c1ccccc1C3=O [Idarubicin] (max concentration tested 1000 nM) : its percent inhibition of viability reads 96.4

Noted for C1=N/C2=N/c3ccc(OCCN4CCCC4)c(c3)COC/C=C/COCc3cccc(c3)C(=C1)N2 [Pacritinib] (max concentration tested 10000 nM) : its percent inhibition of viability reads 8.34

Noted for COc1cc2ncnc(Nc3ccc(F)c(Cl)c3)c2cc1NC(=O)/C=C/CN1CCCCC1 [Dacomitinib] (max concentration tested 1000 nM) : its percent inhibition of viability reads -13.9

Noted for O=C(c1cc(Cc2n[nH]c(=O)c3ccccc23)ccc1F)N1CCN(C(=O)C2CC2)CC1 [Olaparib] (max concentration tested 10000 nM) : its percent inhibition of viability reads -3.15

Noted for COc1ccc(COc2cc3oc(=O)c4cc(C(C)O)ccc4c3cc2OC)cc1 (stereo unspecified) [Palomid-529] (max concentration tested 10000 nM) : its percent inhibition of viability reads 6.27

Noted for CC[C@@H]1C(=O)N(C)c2cnc(Nc3ccc(C(=O)N[C@H]4CC[C@H](N5CCN(CC6CC6)CC5)CC4)cc3OC)nc2N1C(C)C [Volasertib] (max concentration tested 1000 nM) : its percent inhibition of viability reads -0.83

Noted for CCC1=C[C@@H]2CN(C1)Cc1c([nH]c3ccccc13)[C@@](C(=O)OC)(c1cc3c(cc1OC)N(C)[C@H]1[C@@](O)(C(=O)OC)[C@H](OC(C)=O)[C@]4(CC)C=CCN5CC[C@]31[C@@H]54)C2 [Vinorelbine] (max concentration tested 10000 nM) : its percent inhibition of viability reads -0.15

Noted for CNC(=O)c1nn(C)c2c1C(C)(C)Cc1cnc(Nc3ccc(N4CCN(C)CC4)cc3)nc1-2 [Milciclib] (max concentration tested 10000 nM) : its percent inhibition of viability reads -2.17

Noted for Cc1cn(-c2cc(NC(=O)c3ccc(C)c(Nc4nccc(-c5cccnc5)n4)c3)cc(C(F)(F)F)c2)cn1 [Nilotinib] (max concentration tested 10000 nM) : its percent inhibition of viability reads -6.22

Noted for Clc1ccccc1C(c1ccccc1)(c1ccccc1)n1cccn1 [TRAM-34] (max concentration tested 1000 nM) : its percent inhibition of viability reads -11
